We begin with a simple list: items and their reported growth AUC.
- Test system: Lactobacillus paracasei
- Assay Explanation: growth AUC relative to DMSO control (median of replicates) (fraction); higher = more growth (less inhibition), active = hit call of the paper
- Experimental Context: 20 µM; 24 h
Form field (numeric): enter value without unit.

Recorded results for 5 compounds are shown here.
Compound	growth AUC
CCC(C)n1c(=O)[nH]c(C)c(Br)c1=O (stereo unspecified)	1.03
COC(=O)C(Cl)Cl	0.938
Cc1cc(C(F)(C(F)(F)F)C(F)(F)F)ccc1NC(=O)c1cccc(I)c1C(=O)NC(C)(C)CS(C)(=O)=O	1.48
C[C@@H](Oc1ccc(Oc2ccc(C(F)(F)F)cn2)cc1)C(=O)O	1.02
CCSCCSP(=S)(OC)OC	1.01

Switching to the query record.
For the compound shown here, `C[N+]1(C)CCCCC1.[Cl-]` , give the reported growth AUC.
1.02
